Entries and their measured Emax follow.
Test system: S5 cells
Method: High throughput screen: ATP level (viable cells) in S5 cells with reduced SMN
Type: cell-based, chicken
Condition set: Gallus gallus; percentage increase of ATP level relative to cells treated with DMSO only; S5 cells, 18 ng/ml tet; 0.5 to 20 μM; read-out: Maximum Activity (%)
Quick reminder: number only, in %, skip the unit.

Please review the entries below; each comes with its answer.
Compound | Quantity measured | Numeric result
CC(CN(C)C)CN1c2ccccc2Sc2ccccc21 (stereo not shown) | Emax | 40
CN(C)CC/C=C1/c2ccccc2COc2ccccc21 | Emax | 60
CN(C)CCCN1c2ccccc2Sc2ccccc21 | Emax | 60

Input CCN1CCCC(OC(=O)C(c2ccccc2)c2ccccc2)C1 (stereo not shown) . Output Emax: 50

Item: CSc1ccc2c(c1)C(N1CCN(C)CC1)Cc1ccccc1S2 (stereo not shown) | Emax: 25

According to the records, this compound `CN(C)CCCN1c2ccccc2Sc2ccc(C(F)(F)F)cc21` displays Emax of 25

The compound `CN1CCC(OC(c2ccccc2)c2ccccc2)CC1` showed Emax equal to 55

So, CSc1ccc2c(c1)N(CCC1CCCCN1C)c1ccccc1S2 (stereo not shown) ? Its Emax was 80

Reported Emax ( `CN1CCN(C2=Nc3cc(Cl)ccc3Nc3ccccc32)CC1` ) = 30

Lookup result for `CN(C)CCCN1c2ccccc2CCc2ccc(Cl)cc21` ; measured Emax: 50

----------
System: S5 cells
Method: High throughput screen: ATP level (viable cells) in S5 cells with reduced SMN
Type: cell-based, chicken
Condition set: Gallus gallus; percentage increase of ATP level relative to cells treated with DMSO only; S5 cells, 18 ng/ml tet; 0.5 to 20 μM; read-out: Maximum Activity (%)
Decision: Emax beneath 80% gives Criterion met; Emax meeting or exceeding 80% gives Criterion not met.

Compound | Assigned category
COC(=O)[C@H](c1ccccc1Cl)N1CCc2sccc2C1 | Criterion not met

## Task A record lists `CN(C)CCC=C1c2ccccc2CCc2ccccc21` . Is its Emax below 80%?
## Result Criterion met

## Task In plain terms, does `O=C(CCCN1CCC2(CC1)C(=O)NCN2c1ccccc1)c1ccc(F)cc1` come in under 80% for Emax?
## Result Criterion not met

## Task Just wondering, is Emax of CCN(CC)C(C)CN1c2ccccc2Sc2ccccc21 (centres unmarked) below 80%?
## Result Criterion met

----------
Tested on: S5 cells
Method: High throughput screen: ATP level (viable cells) in S5 cells with reduced SMN
Type: cell-based, chicken
Condition set: Gallus gallus; percentage increase of ATP level relative to cells treated with DMSO only; S5 cells, 18 ng/ml tet; 0.5 to 20 μM; read-out: Maximum Activity (%)
Recorded Emax for the following compounds
// units = %; emit number, no label

Compound | Emax / %
CCC(=O)c1ccc2c(c1)N(CC(C)N(C)C)c1ccccc1S2 (centres unmarked) | 60
CN(C)CCCN1c2ccccc2CCc2ccccc21 | 35

Data point: `CNCCCN1c2ccccc2CCc2ccccc21` ; Emax = 30

# Emax of `CN(C)CCCN1c2ccccc2Sc2ccc(Cl)cc21` = 35

According to the records, this compound CC(CN(C)C)CN1c2ccccc2CCc2ccccc21 (centres unmarked) displays Emax of 50

Form: compound = `O=C(CCCN1CC=C(n2c(=O)[nH]c3ccccc32)CC1)c1ccc(F)cc1` ; Emax = 50

Reported Emax ( CC(CN1c2ccccc2Sc2ccccc21)N(C)C (centres unmarked) ) = 75

Field Emax (entry `CN(C)CCC=C1c2ccccc2C=Cc2ccccc21` ) reads 45

Summary for this compound, CN1Cc2c(N)cccc2C(c2ccccc2)C1 (centres unmarked) : Emax is 35

Sample `CN(C)CC/C=C1\c2ccccc2Sc2ccc(Cl)cc21` ; Emax observed: 30

Record CN1CCN2c3ccccc3Cc3ccccc3C2C1 (centres unmarked) , field Emax: 75
